B1: glmS ribozyme (parent)
chain: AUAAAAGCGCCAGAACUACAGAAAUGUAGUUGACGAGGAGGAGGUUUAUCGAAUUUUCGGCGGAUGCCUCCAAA

Variants of: B1
Test: self-cleavage kobs at 40 uM GlcN6P; higher = faster cleavage; RNA array
Details: with glucosamine-6-phosphate
This sample holds only a part of the variants without activity.
Value Type: self-cleavage kobs at 40 uM GlcN6P

Sequence Change: A53G C61G
Value Type: self-cleavage kobs at 40 uM GlcN6P
Reading: < 1e-05 s⁻¹

input: Entry A12G U47A G60A needs its self-cleavage kobs at 40 uM GlcN6P filled in; supply it.
output: < 1e-05 s⁻¹

input: Entry G38U A52G U69G needs its self-cleavage kobs at 40 uM GlcN6P filled in; supply it.
output: 0.000147 s⁻¹

input: Entry C8A G51U C61U needs its self-cleavage kobs at 40 uM GlcN6P filled in; supply it.
output: < 1e-05 s⁻¹

input: Entry A36G G63U needs its self-cleavage kobs at 40 uM GlcN6P filled in; supply it.
output: < 1e-05 s⁻¹

input: Entry C11A C50A C68G needs its self-cleavage kobs at 40 uM GlcN6P filled in; supply it.
output: 5.45e-05 s⁻¹

input: Entry A39U G51A needs its self-cleavage kobs at 40 uM GlcN6P filled in; supply it.
output: < 1e-05 s⁻¹

input: Entry C11A G66C needs its self-cleavage kobs at 40 uM GlcN6P filled in; supply it.
output: < 1e-05 s⁻¹

input: Entry G7A A39C A52U G60A C67U needs its self-cleavage kobs at 40 uM GlcN6P filled in; supply it.
output: < 1e-05 s⁻¹

input: Entry A33C needs its self-cleavage kobs at 40 uM GlcN6P filled in; supply it.
output: 1.4e-05 s⁻¹
